Source: patent US8008506B2

tested-system: human α1A adrenergic receptor (Homo sapiens)
Construct: expressed in transfected cells; host or cells: HEK293 cells, pcDNA3.1(−), hygromycin B selection
Sequence (P35348 whole entry): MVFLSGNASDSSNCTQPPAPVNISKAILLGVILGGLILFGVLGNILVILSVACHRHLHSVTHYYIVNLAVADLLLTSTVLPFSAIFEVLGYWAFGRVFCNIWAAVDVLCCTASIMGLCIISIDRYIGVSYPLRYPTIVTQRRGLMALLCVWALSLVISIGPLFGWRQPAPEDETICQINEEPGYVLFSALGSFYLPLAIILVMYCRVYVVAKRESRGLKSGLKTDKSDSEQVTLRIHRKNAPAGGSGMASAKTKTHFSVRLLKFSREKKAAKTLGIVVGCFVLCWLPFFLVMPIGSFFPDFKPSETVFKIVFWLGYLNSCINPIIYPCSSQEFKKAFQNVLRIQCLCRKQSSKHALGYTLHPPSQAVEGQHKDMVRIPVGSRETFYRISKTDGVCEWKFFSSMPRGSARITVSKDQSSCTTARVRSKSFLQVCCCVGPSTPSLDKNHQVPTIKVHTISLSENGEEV
assay-notes: Test Example 4: human α1A adrenergic receptor agonist activity (Ca flux, Fura-2, transfected HEK293 cells)
Assay type: cell-based

[
  {
    "compound": "CS(=O)(=O)Nc1cccc([C@@H](O)CNCCOc2ccc3c(C(F)(F)F)n[nH]c3c2)c1 [Example 4]",
    "value-qualifier": "=",
    "EC50, nM": 892
  },
  {
    "compound": "CC(C)c1n[nH]c2cc(OCCNC[C@H](O)c3cccc(NS(C)(=O)=O)c3)ccc12 [Example 1]",
    "value-qualifier": ">",
    "EC50, nM": 2000
  },
  {
    "compound": "Cc1n[nH]c2cc(OCCNC[C@H](O)c3cccc(NS(=O)(=O)C(C)C)c3)ccc12 [Example 12]",
    "value-qualifier": "=",
    "EC50, nM": 1310
  },
  {
    "compound": "CCc1n[nH]c2cc(OCCNC[C@H](O)c3cccc(NS(C)(=O)=O)c3)ccc12 [Example 2]",
    "value-qualifier": "=",
    "EC50, nM": 855
  },
  {
    "compound": "Cc1n[nH]c2cc(OCCNC[C@H](O)c3cccc(NS(=O)(=O)c4ccccc4)c3)ccc12 [Example 14]",
    "value-qualifier": ">",
    "EC50, nM": 2000
  }
]
